Assay details: Cytotoxicity assay (MTS) on SH-SY5Y cells
Type: cell-based
Measurement setup: human; SH-SY5Y cells, MTS assay, 6.25–800 µM, mean of at least three experiments with standard error
Experimental: […] After cultivation, the cells were detached using 0.25% Trypsin/EDTA solution (Sigma-Aldrich, St. Louis, MO, USA), re-suspended and seeded at density of 20,000 cells/well in 96-well plates for experiments. […] Data was evaluated from at least two or three experiments (each in duplicate or triplicate) using IC50 nonlinear fit equation predefined in Prism6 software and presented as percentage of inhibition to control untreated cells.
Measured property: IC50

[Q] Which IC50 is listed for COc1ccccc1C(=O)C[n+]1cccc(C(N)=O)c1 ?
[A] ≥ 800 µM

Consider the following items and state reported IC50 for each.
1. NC(=O)c1ccc[n+](CC(=O)c2ccc(Br)cc2)c1
2. Cc1ccc(C(=O)C[n+]2cccc(C(N)=O)c2)cc1
3. NC(=O)c1ccc[n+](CC(=O)c2ccccc2)c1
4. COc1ccc(C(=O)C[n+]2cccc(C(N)=O)c2)cc1
5. NC(=O)c1ccc[n+](CC(=O)c2ccc(-c3ccccc3)cc2)c1.[Br-]
6. NC(=O)c1ccc[n+](CC(=O)c2ccc(F)cc2)c1
7. NC(=O)c1ccc[n+](CC(=O)c2ccc(Cl)cc2)c1

[A]
501 µM
≥ 800 µM
≥ 800 µM
≥ 800 µM
257 µM
≥ 800 µM
≤ 800 µM

[Q] Which IC50 is listed for NC(=O)c1ccc[n+](CC(=O)c2ccc([N+](=O)[O-])cc2)c1 ?
[A] 214 µM

###

Data export: pKi values recorded with human BChE (Homo sapiens).
Sequence (P06276 29-602): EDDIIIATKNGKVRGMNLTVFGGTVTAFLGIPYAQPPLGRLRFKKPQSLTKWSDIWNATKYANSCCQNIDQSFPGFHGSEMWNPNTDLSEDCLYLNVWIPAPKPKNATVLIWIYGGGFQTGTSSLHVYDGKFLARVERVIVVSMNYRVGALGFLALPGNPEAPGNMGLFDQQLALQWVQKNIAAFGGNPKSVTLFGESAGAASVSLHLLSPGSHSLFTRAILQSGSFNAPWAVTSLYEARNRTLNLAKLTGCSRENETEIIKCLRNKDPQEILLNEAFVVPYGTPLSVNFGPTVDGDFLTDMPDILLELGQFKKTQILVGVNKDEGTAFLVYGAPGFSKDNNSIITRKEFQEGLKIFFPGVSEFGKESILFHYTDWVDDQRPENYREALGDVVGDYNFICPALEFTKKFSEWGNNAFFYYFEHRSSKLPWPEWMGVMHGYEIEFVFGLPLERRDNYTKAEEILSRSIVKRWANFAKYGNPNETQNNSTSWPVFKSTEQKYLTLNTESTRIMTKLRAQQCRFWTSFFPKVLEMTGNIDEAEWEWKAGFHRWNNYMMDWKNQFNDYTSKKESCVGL
Answers are plain numbers, as −log10 of the molar value.

[Q] Which pKi is listed for COc1ccccc1C(=O)C[n+]1cccc(C(N)=O)c1 ?
[A] 3.74

[Q] Now consider NC(=O)c1ccc[n+](CC(=O)c2ccc(F)cc2)c1 .
[A] 3.23

[Q] Now consider NC(=O)c1ccc[n+](CC(=O)c2ccc(Br)cc2)c1 .
[A] 4.33

[Q] Now consider NC(=O)c1ccc[n+](CC(=O)c2ccc(Cl)cc2)c1 .
[A] 3.65

[Q] Now consider NC(=O)c1ccc[n+](CC(=O)c2ccccc2)c1 .
[A] 3.63

[Q] Now consider NC(=O)c1ccc[n+](CC(=O)c2ccc([N+](=O)[O-])cc2)c1 .
[A] 3.84

Consider the following items and state reported pKi for each.
1. Cc1ccc(C(=O)C[n+]2cccc(C(N)=O)c2)cc1
2. COc1ccc(C(=O)C[n+]2cccc(C(N)=O)c2)cc1

[A]
[3.62, 3.67]

###

System: HEK293 cells
Assay details: Cytotoxicity assay (MTS) on HEK293 cells
Assay type: cell-based
Measurement setup: HEK293 cells, MTS assay, 6.25–800 µM, mean of at least three experiments with standard error
Method: […] After cultivation, the cells were detached using 0.25% Trypsin/EDTA solution (Sigma-Aldrich, St. Louis, MO, USA), re-suspended and seeded at density of 20,000 cells/well in 96-well plates for experiments. […] Data was evaluated from at least two or three experiments (each in duplicate or triplicate) using IC50 nonlinear fit equation predefined in Prism6 software and presented as percentage of inhibition to control untreated cells.
Measured property: IC50 (µM)
Give bare numbers, in µM.

[Q] Which IC50 is listed for NC(=O)c1ccc[n+](CC(=O)c2ccc(Br)cc2)c1 [Compound 4] ?
[A] 83

###

Assay details: Cytotoxicity assay (MTS) on HEK293 cells
Type: cell-based
Measurement setup: human, HEK293 cells, MTS assay, 6.25–800 µM, mean of at least three experiments with standard error
Exercise: state measured IC50 for each of the compounds provided.

Consider the following items and state reported IC50 for each.
1. COc1ccccc1C(=O)C[n+]1cccc(C(N)=O)c1 [Compound 9]
2. NC(=O)c1ccc[n+](CC(=O)c2ccccc2)c1 [Compound 1]
3. NC(=O)c1ccc[n+](CC(=O)c2ccc(Cl)cc2)c1 [Compound 3]
4. NC(=O)c1ccc[n+](CC(=O)c2ccc([N+](=O)[O-])cc2)c1 [Compound 5]
5. NC(=O)c1ccc[n+](CC(=O)c2ccc(Br)cc2)c1 [Compound 4]
6. Cc1ccc(C(=O)C[n+]2cccc(C(N)=O)c2)cc1 [Compound 6]
7. NC(=O)c1ccc[n+](CC(=O)c2ccc(F)cc2)c1 [Compound 2]

[A]
["≥ 800 µM", "≤ 800 µM", "~85 µM", "417 µM", "~85 µM", "≤ 800 µM", "≥ 800 µM"]

[Q] Which IC50 is listed for COc1ccc(C(=O)C[n+]2cccc(C(N)=O)c2)cc1 [Compound 7] ?
[A] ≥ 800 µM

###

Tested on: phospho-Akt (Ser473)
Assay details: Intracellular signalling by Western blot: phospho-Akt
Type: cell-based, human
Measurement setup: serum-starved HEK293 cells, 100 μM, 10 or 30 min, vs. Basal
Measured property: phosphorylation of Akt (Ser473)

[Q] Which phosphorylation of Akt (Ser473) is listed for NC(=O)c1ccc[n+](CC(=O)c2ccc(Cl)cc2)c1 ?
[A] suppressing

[Q] Now consider NC(=O)c1ccc[n+](CC(=O)c2ccc([N+](=O)[O-])cc2)c1 .
[A] markedly pronounced

[Q] Now consider NC(=O)c1ccc[n+](CC(=O)c2ccc(Br)cc2)c1 .
[A] suppressing

[Q] Now consider NC(=O)c1ccc[n+](CC(=O)c2ccc(-c3ccccc3)cc2)c1.[Br-] .
[A] markedly pronounced

###

Data export: pKi values recorded with human AChE (Homo sapiens, UniProt P22303).
Sequence (P22303 other isoform, or with tags, fused parts or gaps): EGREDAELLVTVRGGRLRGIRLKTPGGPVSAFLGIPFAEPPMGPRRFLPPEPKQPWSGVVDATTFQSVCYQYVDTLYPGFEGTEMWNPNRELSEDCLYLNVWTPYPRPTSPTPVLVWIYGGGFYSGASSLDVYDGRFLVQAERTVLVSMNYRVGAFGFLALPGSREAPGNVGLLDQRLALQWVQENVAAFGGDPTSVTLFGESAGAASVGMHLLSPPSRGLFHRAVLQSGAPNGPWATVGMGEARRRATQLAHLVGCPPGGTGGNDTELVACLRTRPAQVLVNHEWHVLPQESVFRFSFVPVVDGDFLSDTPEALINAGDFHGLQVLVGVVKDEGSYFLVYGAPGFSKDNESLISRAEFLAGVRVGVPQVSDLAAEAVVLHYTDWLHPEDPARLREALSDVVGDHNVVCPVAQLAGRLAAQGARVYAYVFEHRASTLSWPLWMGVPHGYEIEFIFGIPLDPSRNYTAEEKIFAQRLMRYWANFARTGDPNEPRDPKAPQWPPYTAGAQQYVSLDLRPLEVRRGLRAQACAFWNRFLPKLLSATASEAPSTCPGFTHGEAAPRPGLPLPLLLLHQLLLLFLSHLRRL
Give bare numbers, as −log10 of the molar value.

Before answering, review these 3 worked examples.
[Q] Which pKi is listed for NC(=O)c1ccc[n+](CC(=O)c2ccccc2)c1 [Compound 1] ?
[A] 4.10

[Q] Now consider COc1ccc(C(=O)C[n+]2cccc(C(N)=O)c2)cc1 [Compound 7] .
[A] 4.72

[Q] Now consider NC(=O)c1ccc[n+](CC(=O)c2ccc(Br)cc2)c1 [Compound 4] .
[A] 4.96

Turning now to a further record.
[Q] Which pKi is listed for Cc1ccc(C(=O)C[n+]2cccc(C(N)=O)c2)cc1 [Compound 6] ?
[A] 5.52

###

Tested on: HIF-1α
Assay details: Intracellular signalling by Western blot: HIF-1α abundance
Assay type: cell-based, human
Measurement setup: serum-starved HEK293 cells, 100 μM, 10 or 30 min, vs. Basal
Measured property: abundance of HIF-1α

[Q] Which abundance of HIF-1α is listed for NC(=O)c1ccc[n+](CC(=O)c2ccc(-c3ccccc3)cc2)c1.[Br-] ?
[A] increased

[Q] Now consider NC(=O)c1ccc[n+](CC(=O)c2ccc(Br)cc2)c1 .
[A] increased

###

Data export: pKi values recorded with human AChE (Homo sapiens).
One number for each entry, as −log10 of the molar value.

[Q] Which pKi is listed for COc1ccccc1C(=O)C[n+]1cccc(C(N)=O)c1 ?
[A] 4.59

[Q] Now consider NC(=O)c1ccc[n+](CC(=O)c2ccc(F)cc2)c1 .
[A] 4.07

[Q] Now consider NC(=O)c1ccc[n+](CC(=O)c2ccc([N+](=O)[O-])cc2)c1 .
[A] 4.41

[Q] Now consider NC(=O)c1ccc[n+](CC(=O)c2ccc(-c3ccccc3)cc2)c1.[Br-] .
[A] 5.40

Turning now to a further record.
[Q] Which pKi is listed for NC(=O)c1ccc[n+](CC(=O)c2ccc(Cl)cc2)c1 ?
[A] 4.48
